I'd be grateful if you could share measured Binding of mAb-2 to SRA Pre-complexed with mAb-1 for these entries.
- study-system: T1, SRA.mmh
- T1 construct: also called SRA.mmh (CHO)
- T1 antigen: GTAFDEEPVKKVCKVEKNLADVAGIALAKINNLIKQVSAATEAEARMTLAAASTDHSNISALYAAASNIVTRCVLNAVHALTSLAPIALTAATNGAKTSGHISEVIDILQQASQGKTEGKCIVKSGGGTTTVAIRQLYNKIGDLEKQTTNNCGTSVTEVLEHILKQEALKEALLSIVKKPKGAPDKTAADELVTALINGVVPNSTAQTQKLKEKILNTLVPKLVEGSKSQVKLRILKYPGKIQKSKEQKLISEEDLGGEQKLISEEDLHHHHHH
- assay-method-text: Octet, mAb-2 at 50 ug/mL on captured SRA.mmh after negative control α-PRLR H1H6800P as mAb-1 (row 32 (-))

Using the record for H1H10059P (antibody, V domains shown, Fully human antibody with human IgG1 Fc (prefix H1H)) VH: QVQLVQSGAEVKKPGASVKVSCKAAGFTFIGYYIHWVRQAPGQGLEWMGWINSNSGDKDSAPKFQDRVTMTRDTSISTAYMELSRLRSDDTAVYFCAREGYNFGHFDYWGQGTLVTVSS VL: DIVMTQTPLSSPVTLGQPASISCRSSQSLVHSDGNTYLSWLQQRPGQPPRLLIYKISNRLSGVPDRFSGSGAGTDFTLKISRVEGEDVGVYYCMQGTQFPRTFGQGTKVEIK , report its Binding of mAb-2 to SRA Pre-complexed with mAb-1.
1.17

Give its Binding of mAb-2 to SRA Pre-complexed with mAb-1 value. Item: H1H10069P (antibody, V domains shown, Fully human antibody with human IgG1 Fc (prefix H1H)) VH: QVQLQESGPGLVKPSETLSLTCSVSGGSFTNYYWSWIRQPPGKGLEWIGSVFYSGTTNYNPSLQSRVTLSIETSKNQFSLRLNSVTAADTAVYYCARDQGAAALDYWGQGTLVTVSS VL: DIQMTQSPSTLSASVGDRLTITCRASQSINNWLAWYQQKPGKAPKLLIYKASNLESGVPSRFSGSGSGTEFTLTISNLQPDDFATYYCQQYNSFFLTFGGGTKVEIK
1.37
